study target: N-type calcium channel α1B (Cav2.2), β3 and α2δ subunits (Homo sapiens)
Construct: expressed in transfected cells
Sequence (Q00975 whole entry): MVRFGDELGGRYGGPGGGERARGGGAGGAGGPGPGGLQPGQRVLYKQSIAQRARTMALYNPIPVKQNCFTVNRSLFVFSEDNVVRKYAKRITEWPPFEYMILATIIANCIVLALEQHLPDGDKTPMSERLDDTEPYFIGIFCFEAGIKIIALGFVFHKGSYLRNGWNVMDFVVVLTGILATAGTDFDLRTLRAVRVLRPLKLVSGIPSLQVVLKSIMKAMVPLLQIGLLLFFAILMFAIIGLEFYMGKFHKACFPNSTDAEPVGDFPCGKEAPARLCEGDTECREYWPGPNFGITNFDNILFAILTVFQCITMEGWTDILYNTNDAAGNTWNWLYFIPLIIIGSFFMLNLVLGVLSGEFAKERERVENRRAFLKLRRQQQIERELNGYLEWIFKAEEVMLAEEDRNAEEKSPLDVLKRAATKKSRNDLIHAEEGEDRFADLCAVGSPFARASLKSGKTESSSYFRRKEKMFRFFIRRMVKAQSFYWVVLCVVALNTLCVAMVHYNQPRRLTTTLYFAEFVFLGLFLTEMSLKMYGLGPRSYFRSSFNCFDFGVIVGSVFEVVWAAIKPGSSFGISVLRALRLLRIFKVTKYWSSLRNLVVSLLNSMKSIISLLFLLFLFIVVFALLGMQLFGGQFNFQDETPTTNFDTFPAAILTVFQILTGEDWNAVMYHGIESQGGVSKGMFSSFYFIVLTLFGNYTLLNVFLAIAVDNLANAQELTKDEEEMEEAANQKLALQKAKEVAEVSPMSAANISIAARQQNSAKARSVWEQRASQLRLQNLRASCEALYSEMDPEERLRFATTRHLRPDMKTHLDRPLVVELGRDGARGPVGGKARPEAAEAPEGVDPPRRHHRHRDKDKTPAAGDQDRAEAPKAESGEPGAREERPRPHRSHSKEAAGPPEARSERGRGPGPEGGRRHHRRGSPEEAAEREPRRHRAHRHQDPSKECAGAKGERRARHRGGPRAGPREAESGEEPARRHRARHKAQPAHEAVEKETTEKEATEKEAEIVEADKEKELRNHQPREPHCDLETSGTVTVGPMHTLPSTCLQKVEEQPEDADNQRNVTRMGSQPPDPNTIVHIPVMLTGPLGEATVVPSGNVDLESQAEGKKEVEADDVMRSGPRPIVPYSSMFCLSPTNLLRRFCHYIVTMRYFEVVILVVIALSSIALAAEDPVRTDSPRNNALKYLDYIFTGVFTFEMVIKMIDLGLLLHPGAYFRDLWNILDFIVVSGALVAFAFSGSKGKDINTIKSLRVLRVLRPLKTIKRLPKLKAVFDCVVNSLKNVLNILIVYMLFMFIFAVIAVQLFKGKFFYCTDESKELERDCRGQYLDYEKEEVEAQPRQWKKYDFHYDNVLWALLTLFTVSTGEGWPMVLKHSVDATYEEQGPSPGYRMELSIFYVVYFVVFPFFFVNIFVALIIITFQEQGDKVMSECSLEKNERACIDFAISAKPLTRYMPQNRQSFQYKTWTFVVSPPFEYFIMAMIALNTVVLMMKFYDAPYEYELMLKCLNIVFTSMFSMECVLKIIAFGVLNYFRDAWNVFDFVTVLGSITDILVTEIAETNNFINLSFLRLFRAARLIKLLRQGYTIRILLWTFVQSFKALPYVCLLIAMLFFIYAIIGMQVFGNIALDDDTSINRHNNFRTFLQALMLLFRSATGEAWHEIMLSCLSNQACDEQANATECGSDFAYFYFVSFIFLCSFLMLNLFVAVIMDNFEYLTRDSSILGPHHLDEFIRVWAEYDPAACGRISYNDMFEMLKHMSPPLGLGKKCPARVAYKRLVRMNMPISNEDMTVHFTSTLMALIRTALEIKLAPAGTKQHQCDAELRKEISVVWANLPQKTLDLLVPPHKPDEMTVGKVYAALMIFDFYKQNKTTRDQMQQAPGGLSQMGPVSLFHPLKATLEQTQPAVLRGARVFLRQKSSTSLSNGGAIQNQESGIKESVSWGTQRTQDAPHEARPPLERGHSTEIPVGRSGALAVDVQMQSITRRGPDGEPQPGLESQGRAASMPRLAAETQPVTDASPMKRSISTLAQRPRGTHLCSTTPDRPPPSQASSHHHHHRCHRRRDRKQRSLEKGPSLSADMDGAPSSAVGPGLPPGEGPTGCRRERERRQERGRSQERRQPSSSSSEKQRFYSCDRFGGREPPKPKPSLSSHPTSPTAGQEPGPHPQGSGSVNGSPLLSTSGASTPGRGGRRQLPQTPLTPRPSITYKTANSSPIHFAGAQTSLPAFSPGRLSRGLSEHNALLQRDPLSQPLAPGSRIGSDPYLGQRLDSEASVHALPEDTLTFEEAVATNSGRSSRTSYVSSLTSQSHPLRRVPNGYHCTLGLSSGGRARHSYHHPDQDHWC
Sequence (P54284 whole entry partner): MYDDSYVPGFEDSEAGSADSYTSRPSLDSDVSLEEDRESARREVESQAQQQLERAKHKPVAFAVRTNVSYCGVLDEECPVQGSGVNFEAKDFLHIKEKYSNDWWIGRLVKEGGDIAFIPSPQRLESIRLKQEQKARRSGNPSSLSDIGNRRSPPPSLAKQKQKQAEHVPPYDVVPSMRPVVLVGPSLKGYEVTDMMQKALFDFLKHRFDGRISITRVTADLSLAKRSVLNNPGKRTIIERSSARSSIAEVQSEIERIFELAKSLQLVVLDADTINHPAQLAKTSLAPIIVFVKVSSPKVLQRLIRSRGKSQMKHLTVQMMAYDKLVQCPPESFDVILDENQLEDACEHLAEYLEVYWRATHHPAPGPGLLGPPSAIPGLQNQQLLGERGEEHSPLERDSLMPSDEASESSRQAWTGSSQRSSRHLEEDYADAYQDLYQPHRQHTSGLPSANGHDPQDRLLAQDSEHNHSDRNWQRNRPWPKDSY
Sequence (P54289 25-956 partner limits assumed): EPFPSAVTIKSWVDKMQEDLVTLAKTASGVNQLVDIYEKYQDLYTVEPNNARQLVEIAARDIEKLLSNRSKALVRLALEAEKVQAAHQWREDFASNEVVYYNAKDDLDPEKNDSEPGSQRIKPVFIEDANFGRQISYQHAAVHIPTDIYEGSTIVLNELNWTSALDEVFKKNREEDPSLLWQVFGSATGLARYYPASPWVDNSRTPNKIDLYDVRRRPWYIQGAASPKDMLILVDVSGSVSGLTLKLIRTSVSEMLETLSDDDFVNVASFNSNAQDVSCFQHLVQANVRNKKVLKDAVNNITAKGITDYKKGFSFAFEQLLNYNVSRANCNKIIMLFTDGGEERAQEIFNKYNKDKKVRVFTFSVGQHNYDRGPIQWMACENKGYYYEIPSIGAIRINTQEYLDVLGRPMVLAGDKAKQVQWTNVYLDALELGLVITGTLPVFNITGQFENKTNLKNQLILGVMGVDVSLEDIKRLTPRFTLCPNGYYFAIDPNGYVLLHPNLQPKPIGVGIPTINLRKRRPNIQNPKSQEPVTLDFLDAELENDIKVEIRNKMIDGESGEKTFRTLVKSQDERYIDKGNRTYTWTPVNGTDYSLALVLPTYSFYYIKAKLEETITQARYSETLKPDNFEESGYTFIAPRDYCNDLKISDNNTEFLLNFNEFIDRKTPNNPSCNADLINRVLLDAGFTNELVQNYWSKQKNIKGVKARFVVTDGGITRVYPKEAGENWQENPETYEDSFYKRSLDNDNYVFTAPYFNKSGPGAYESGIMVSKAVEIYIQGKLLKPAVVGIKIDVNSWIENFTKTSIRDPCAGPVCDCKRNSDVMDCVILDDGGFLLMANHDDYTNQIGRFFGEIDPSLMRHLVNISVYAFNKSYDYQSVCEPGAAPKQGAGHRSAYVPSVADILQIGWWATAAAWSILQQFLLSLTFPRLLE
Sequence (P54289 957-1103 partner limits assumed): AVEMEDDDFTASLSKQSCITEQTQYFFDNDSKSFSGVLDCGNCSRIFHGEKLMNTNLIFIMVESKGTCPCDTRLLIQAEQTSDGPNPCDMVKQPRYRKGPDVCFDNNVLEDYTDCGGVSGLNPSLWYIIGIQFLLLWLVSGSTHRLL
protocol details: Functional assay, antagonism of N-type calcium channel (FDSS calcium mobilization response to KCl depolarization)
Type: cell-based
study conditions: 0.33 μM compound; FDSS, 50 mM KCl
assay endpoint: inhibition at 0.33 µM (%)
# unit: % | format: bare number

Worked set:
Could you share which inhibition at 0.33 µM value was measured for `COc1cc(F)ccc1-n1nc2c(c1-c1ccc(Cl)cc1)CN(S(=O)(=O)C(C)C)C2` ?
91

What value of inhibition at 0.33 µM has been reported for the following molecule? `COc1ccc(-n2nc3c(c2-c2ccc(Cl)cc2)CN(S(=O)(=O)N2CCC(C)CC2)C3)c(F)c1`
62

Give the measured inhibition at 0.33 µM of `COc1cc(C)ccc1-n1nc2c(c1-c1ccc(Cl)cc1)CN(S(=O)(=O)C(C)C)C2` .
93

What does the record list as inhibition at 0.33 µM for `COc1ccc(-n2nc3c(c2-c2ccc(Cl)cc2)CN(S(=O)(=O)C(C)C)C3)c(C)c1` ?
61

Please report the recorded inhibition at 0.33 µM for `COc1ccccc1-n1nc2c(c1-c1ccc(Cl)cc1)CN(S(=O)(=O)N1CCC(C)CC1)C2` .
95

// inhibition at 0.33 µM lookup, key: `COc1cc(F)ccc1-n1nc2c(c1-c1ccc(Cl)cc1)CN(S(=O)(=O)N1CCC(C)CC1)C2`
93

What inhibition at 0.33 µM value was documented for this molecule, `CC(C)S(=O)(=O)N1Cc2nn(-c3ccccc3N(C)C)c(-c3ccc(Cl)cc3)c2C1` ?
96

Could you tell me which inhibition at 0.33 µM is on file for `COc1ccc(-n2nc3c(c2-c2ccc(Cl)cc2)CN(S(=O)(=O)C(C)C)C3)c(F)c1` ?
61

Consider the molecule shown here: `COc1cc(Cl)ccc1-n1nc2c(c1-c1ccc(Cl)cc1)CN(S(=O)(=O)N(C)C)C2` What is its recorded inhibition at 0.33 µM?
74

What value of inhibition at 0.33 µM has been recorded for this entry: `COc1cc(C)ccc1-n1nc2c(c1-c1ccc(Cl)cc1)CN(S(=O)(=O)N1CCC(C)CC1)C2`
82

Further cases:
Entry `COc1ccc(-n2nc3c(c2-c2ccc(Cl)cc2)CN(S(=O)(=O)N(C)C)C3)c(C)c1` : reported inhibition at 0.33 µM = ?
69

State the recorded inhibition at 0.33 µM for this entry: `CC1CCN(S(=O)(=O)N2Cc3nn(-c4cccc5c4OCO5)c(-c4ccc(Cl)cc4)c3C2)CC1`
92

Quick one: inhibition at 0.33 µM of `CC(C)S(=O)(=O)N1Cc2nn(-c3cccc4c3OCO4)c(-c3ccc(Cl)cc3)c2C1` ?
89

Can you look up the measured inhibition at 0.33 µM of `COc1ccc(-n2nc3c(c2-c2ccc(Cl)cc2)CN(S(C)(=O)=O)C3)c(C)c1` for me?
35
